# assay-procedure: Hemolytic activity in mouse erythrocytes at 256 uM preincubated for 1 to 6 hr with 10% mouse serum and measured after 1 hr by absorbance based analysis
# Type: toxicity, cell-based, Erythrocyte
# details: time 1-7 hrs, read-out: Activity
Where a SMILES comes first, the peptide text is derived from it. Side-chain parts run from the residue outwards.

>  <compound>
N=C(N)NCCC[C@H](NC(=O)[C@H](CCCNC(=N)N)NC(=O)[C@H](CCCNC(=N)N)NC(=O)[C@@H](N)CCCNC(=N)N)C(=O)N[C@@H](CCCCN)C(=O)N[C@@H](Cc1c[nH]c2ccccc12)C(=O)N[C@@H](Cc1c[nH]c2ccccc12)C(=O)N[C@@H](Cc1c[nH]c2ccccc12)C(=O)N[C@@H](Cc1c[nH]c2ccccc12)C(N)=O

>  <hemolysis at 1 h, 256 µM>
< 10%

$$$$
>  <compound>
N=C(N)NCCC[C@H](NC(=O)[C@@H](N)CCCNC(=N)N)C(=O)NCCCC[C@H](NC(=O)[C@H](CCCNC(=N)N)NC(=O)[C@@H](N)CCCNC(=N)N)C(=O)N[C@@H](Cc1c[nH]c2ccccc12)C(=O)N[C@@H](Cc1c[nH]c2ccccc12)C(=O)N[C@@H](Cc1c[nH]c2ccccc12)C(=O)N[C@@H](Cc1c[nH]c2ccccc12)C(N)=O (H-RRK([Arg-Arg])WWWW-NH2)

>  <hemolysis at 1 h, 256 µM>
< 10%

$$$$
>  <compound>
N=C(N)NCCC[C@H](NC(=O)[C@H](CCCNC(=N)N)NC(=O)[C@H](CCCNC(=N)N)NC(=O)[C@H](CCCNC(=N)N)NC(=O)[C@H](CCCCNC(=O)[C@H](Cc1c[nH]c2ccccc12)NC(=O)[C@@H](N)Cc1c[nH]c2ccccc12)NC(=O)[C@H](Cc1c[nH]c2ccccc12)NC(=O)[C@@H](N)Cc1c[nH]c2ccccc12)C(N)=O (H-WWK([Trp-Trp])RRRR-NH2)

>  <hemolysis at 1 h, 256 µM>
< 10%

$$$$

----------
# assay-procedure: Cytotoxicity against HEK293T cells assessed as cell death measured after 1 hr by resazurin dye based analysis
# Assay type: toxicity, HEK-293T
# details: human, HEK293T cells
Where a SMILES comes first, the peptide text is derived from it. Side-chain parts run from the residue outwards.

>  <molecule>
N=C(N)NCCC[C@H](N)C(=O)NCCCC[C@H](NC(=O)[C@@H](N)CCCNC(=N)N)C(=O)N[C@@H](Cc1c[nH]c2ccccc12)C(=O)N[C@@H](Cc1c[nH]c2ccccc12)C(N)=O (H-RK(Arg)WW-NH2)

>  <CC50 at 1 h>
> 128 µM

$$$$
>  <molecule>
N=C(N)NCCC[C@H](NC(=O)[C@@H](N)CCCNC(=N)N)C(=O)NCCCC[C@H](NC(=O)[C@H](CCCNC(=N)N)NC(=O)[C@@H](N)CCCNC(=N)N)C(=O)N[C@@H](Cc1c[nH]c2ccccc12)C(=O)N[C@@H](Cc1c[nH]c2ccccc12)C(=O)N[C@@H](Cc1c[nH]c2ccccc12)C(N)=O (H-RRK([Arg-Arg])WWW-NH2)

>  <CC50 at 1 h>
> 128 µM

$$$$
>  <molecule>
N=C(N)NCCC[C@H](NC(=O)[C@@H](N)CCCNC(=N)N)C(=O)N[C@@H](CCCCN)C(=O)N[C@@H](Cc1c[nH]c2ccccc12)C(N)=O (H-RRKW-NH2)

>  <CC50 at 1 h>
> 128 µM

$$$$

Ref: ChEMBL document CHEMBL5500371
